- System Name: KRas G12D (Homo sapiens, UniProt P01116, G12D)
- Sequence (P01116 1-169 isoform P01116-2 G12D): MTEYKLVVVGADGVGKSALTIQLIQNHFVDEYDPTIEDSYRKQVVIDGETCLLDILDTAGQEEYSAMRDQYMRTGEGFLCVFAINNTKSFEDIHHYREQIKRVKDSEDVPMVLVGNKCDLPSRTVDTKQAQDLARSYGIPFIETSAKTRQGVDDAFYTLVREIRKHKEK
- Assay Text: biochemical
Measurement Label: IC50

Request: Could you tell me which IC50 is on file for CCc1c(F)ccc2cc(O)cc(-c3ncc4c(N5CCC[C@@](C)(O)C5)nc(OC[C@@]56CCCN5[C@H](CO)CC6)nc4c3F)c12 ?
Response: ≤ 2 nM

Request: What value of measured IC50 is listed for CCc1c(F)ccc2cc(O)cc(-c3ncc4c(N5CCC[C@@](C)(O)C5)nc(OCC56CCCN5CCC6)nc4c3F)c12 ?
Response: ≤ 2 nM

Request: Fill in the blank: the reported IC50 of CCc1c(F)ccc2cc(O)cc(-c3ncc4c(N5CCCC6(C5)NC(=O)NC6=O)nc(OC[C@@]56CCCN5C[C@H](F)C6)nc4c3F)c12 (stereo partly drawn) is ____.
Response: ≤ 2 nM

====

- System Name: KRas WT (Homo sapiens, UniProt P01116)
- Sequence (P01116 1-169 isoform P01116-2): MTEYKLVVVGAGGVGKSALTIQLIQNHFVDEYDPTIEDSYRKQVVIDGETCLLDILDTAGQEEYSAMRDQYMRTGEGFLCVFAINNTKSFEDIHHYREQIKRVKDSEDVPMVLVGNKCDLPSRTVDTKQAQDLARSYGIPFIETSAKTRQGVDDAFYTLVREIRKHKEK
pIC50: −log10 of the molar value.
Classification field: MET = pIC50 at or over 7; NOT MET = pIC50 under 7.

Request: Check the entry NS(=O)(=O)CC1CCCN(c2nc(OCC34CCCN3CCC4)nc3c(F)c(-c4cccc5cccc(F)c45)ncc23)C1 (centres unmarked) [Example 221] : does pIC50 equal or exceed 7?
Response: NOT MET

Request: Given the entry O=S1(=O)CC(CNc2nc(OCC34CCCN3CCC4)nc3c(F)c(-c4cccc5cccc(F)c45)ncc23)C1 [Example 127] , answer whether its pIC50 meets or surpasses 7.
Response: NOT MET

Request: Could you tell me if the measured pIC50 of CCc1c(F)ccc2cc(O)cc(-c3ncc4c(N5CCN6C(=O)NC(=O)C6C5)nc(OC[C@@]56CCCN5C[C@H](F)C6)nc4c3F)c12 (some centres unmarked) [Example 381] reaches 7 or more?
Response: MET

Request: hey, is pIC50 for this one >= 7? Cc1cccc2cccc(-c3ncc4c(N5CCCC6(C5)NC(=O)NC6=O)nc(OCC56CCCN5CCC6)nc4c3F)c12 (centres unmarked) [Example 448]
Response: MET

Request: Decide: is the reported value of pIC50 for CC1(O)CCCN(c2nc(OCC34CCCN3CCC4)nc3c(F)c(-c4cccc5cccc(C6CC6)c45)ncc23)C1 (centres unmarked) [Example 440] equal to or greater than 7?
Response: NOT MET

Request: Decide: is the reported value of pIC50 for OCC1CCCN(c2nc(OCC34CCCN3CCC4)nc3c(F)c(-c4cccc5cccc(F)c45)ncc23)C1 (centres unmarked) [Example 113] equal to or greater than 7?
Response: NOT MET

Request: Would you say Cc1ccc(O)cc1-c1ncc2c(N3CCCC(C)(O)C3)nc(OCC34CCCN3CCC4)nc2c1F (centres unmarked) [Example 432] shows pIC50 at minimum 7?
Response: NOT MET

Request: Does the molecule CCc1cccc2cccc(-c3ncc4c(N5CCCC6(CNC(=O)N6)C5)nc(OCC56CCCN5CCC6)nc4c3F)c12 (centres unmarked) [Example 294] have recorded pIC50 that is 7 or more?
Response: MET

====

- System Name: KRas G12D (Homo sapiens, UniProt P01116, G12D);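 note: TR-FRET displacement binding assay on KRas, read after a one-hour incubation at room temperature, IC50 fitted from percent-of-control values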
- Assay Text: biochemical
// classify(record): look up IC50 in ranges low value: < 300 nM; medium value: ≥ 300 nM and < 10000 nM; high value: ≥ 10000 nM

Request: Any idea which band CCc1c(F)ccc2cc(O)cc(-c3ncc4c(N5CCC[C@@](C)(O)C5)nc(OCC5(CN6CCCCC6)CC5)nc4c3F)c12 [Example 331] is in?
Response: low value

Request: Entry Fc1c(-c2cccc3cccc(F)c23)ncc2c(Nc3cnn(-c4ccncc4)c3)nc(OCC34CCCN3CCC4)nc12 [Example 210] belongs to which category?
Response: high value

Request: Hi there! Could you help me figure out the category for Cc1ccc2[nH]ncc2c1-c1ncc2c(N3CCCC(C)(O)C3)nc(OCC34CCCN3CCC4)nc2c1F (stereo not shown) [Example 430] please?
Response: medium value

Request: Pick a category. Item: Nc1cc2n(n1)CCCN(c1nc(OCC34CCCN3CCC4)nc3c(F)c(-c4cccc5cccc(F)c45)ncc13)C2 [Example 78]
Response: medium value

Request: Assign a bin to CCc1c(F)ccc2cc(O)cc(-c3ncc4c(NCc5cn[nH]c5)nc(OC[C@@]56CCCN5C[C@H](F)C6)nc4c3F)c12 [Example 160]
Response: low value

Request: Which bin should I file CN(Cc1cccnc1N)c1nc(OCC23CCCN2CCC3)nc2c(F)c(-c3cccc4cccc(F)c34)ncc12 [Example 79] under?
Response: high value

Request: The entry to classify is CCc1c(F)ccc2cc(O)cc(-c3ncc4c(N5CCC[C@]6(CC(=O)N6)C5)nc(OCC5(CN6CCCC6)CC5)nc4c3F)c12 [Example 319] ; which class holds it?
Response: low value

Request: Band for the recorded IC50 of C#Cc1c(F)ccc2cc(O)cc(-c3ncc4c(N5CCC[C@@](C)(O)C5)nc(OC[C@@]56CCCN5C[C@H](F)C6)nc4c3F)c12 [Example 13] ?
Response: low value

Request: Which class holds CC1(O)CCCN(c2nc(OCC34CCCN3CCC4)nc3c(F)c(-c4cccc5cccc(Cl)c45)ncc23)C1 (stereo not shown) [Example 1] ?
Response: medium value

Request: Which band does CCc1c(F)ccc2cc(O)cc(-c3ncc4c(Nc5ccc6cnn(C)c6c5)nc(OC[C@@]56CCCN5C[C@H](F)C6)nc4c3F)c12 [Example 174] fall in?
Response: low value

Request: State the class of the compound shown: C#Cc1c(F)ccc2cc(O)cc(-c3ncc4c(N5CCC[C@](C)(O)C5)nc(OC[C@@]56CCCN5C[C@H](F)C6)nc4c3F)c12 [Example 10]
Response: low value

Request: Assign a bin to O=CNC1CCN(c2nc(OCC34CCCN3CCC4)nc3c(F)c(-c4cccc5cccc(F)c45)ncc23)CC1 [Example 244]
Response: high value

Request: Lab log: CCc1c(F)ccc2cc(O)cc(-c3ncc4c(N5CC6C(=O)NC(=O)C6(C)C5)nc(OC[C@@]56CCCN5C[C@H](F)C6)nc4c3F)c12 (stereo partly shown) [Example 482] — assign IC50 category
Response: low value

Request: GET /class?item= CCc1c(F)ccc2cc(O)cc(-c3ncc4c(N5CC6CC(O)C(C6)C5)nc(OC[C@@]56CCCN5C[C@H](F)C6)nc4c3F)c12 (stereo partly shown) [Example 82]
Response: low value

Request: # bin lookup: classify NC(=O)CCNc1nc(OCC23CCCN2CCC3)nc2c(F)c(-c3cccc4cccc(F)c34)ncc12 [Example 225] by its IC50
Response: high value

Request: Into which bin does this compound go? CCc1c(F)ccc2cc(O)cc(-c3ncc4c(N5C[C@H](O)CC[C@@H](O)C5)nc(OC[C@@]56CCCN5C[C@H](F)C6)nc4c3F)c12 [Example 490]
Response: low value

Request: Band assignment needed for Oc1cccc2c1CN(c1nc(OCC34CCCN3CCC4)nc3c(F)c(-c4cccc5cccc(F)c45)ncc13)C2 [Example 120] please.
Response: high value

Request: Category lookup for the compound Cc1cc2[nH]ncc2c(-c2ncc3c(N4CCCC5(CNS(=O)(=O)N5)C4)nc(OCC45CCCN4CCC5)nc3c2F)c1C (stereo not shown) [Example 521]
Response: low value

Request: Would you mind sorting Fc1c(-c2cccc3cccc(F)c23)ncc2c(N3CCCC4(CCC4)C3)nc(OCC34CCCN3CCC4)nc12 [Example 232] into the appropriate category?
Response: high value

====

- System: pERK in ASPC1 cells
- Assay Text: Inhibition of KRas phosphorylation of ERK (Cisbio HTRF pERK assay)
- Setup Conditions: Homo sapiens, ASPC1, read-out: Inhibition (HTRF IC50) of KRas-mediated Phosphorylation of ERK, AsPC-1
Measurement Label: IC50 (nM)
The reply should contain only the number, in nM.

Request: Fill in the blank: the reported IC50 of CCc1c(F)ccc2cc(O)cc(-c3ncc4c(N5CCC[C@@](C)(O)C5)nc(OC[C@@]56CCCN5[C@H](COC(=O)N5CCOCC5)CC6)nc4c3F)c12 is ____.
Response: 8

Request: # lookup: IC50 of Oc1cc(-c2ncc3c(N4CC5CC(O)C(C5)C4)nc(OC[C@@]45CCCN4C[C@H](F)C5)nc3c2F)c2c(Br)c(F)ccc2c1 (stereo partly drawn)
Response: 12

Request: Fill blank: measured IC50 of the compound CCc1c(F)ccc2cc(O)cc(-c3ncc4c(N5C[C@@H]6C[C@H](C5)[C@H](O)C6)nc(OCC5(CN(C)C)CC5)nc4c3F)c12 is ____.
Response: 49

====

Assignment: determine reported pIC50 for the given compounds.
- System Name: KRas G12V (Homo sapiens, UniProt P01116, G12V);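 note: KRas binding measured by TR-FRET displacement at room temperature, IC50 fitted from percent of control values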
- Sequence (P01116 1-169 isoform P01116-2 G12V): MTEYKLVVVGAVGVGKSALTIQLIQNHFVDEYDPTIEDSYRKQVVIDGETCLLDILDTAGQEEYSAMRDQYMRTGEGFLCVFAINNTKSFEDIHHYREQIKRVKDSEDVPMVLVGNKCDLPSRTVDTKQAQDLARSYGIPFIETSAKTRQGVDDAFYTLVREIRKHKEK
- Assay Text: biochemical
The quantity pIC50 is defined as the negative base-10 logarithm of the molar concentration.

Request: Please report the recorded pIC50 for CCc1c(F)ccc2cc(O)cc(-c3ncc4c(N5CCN6C(=O)NC(=O)C6C5)nc(OC[C@@]56CCCN5C[C@H](F)C6)nc4c3F)c12 (stereo partly shown) .
Response: 7.96

Request: Report pIC50 for Cc1cc2[nH]ncc2c(-c2ncc3c(N4CCCC5(CNC(=O)C5)C4)nc(OCC45CCCN4CCC5)nc3c2F)c1C (stereo not shown) please.
Response: 5.90

Request: // query pIC50 value for entry CCc1c(F)ccc2cc(O)cc(-c3ncc4c(N5CCC[C@@](C)(O)C5)nc(OC[C@]56CCCN5[C@@H](COC(=O)N(C)C)CC6)nc4c3F)c12
Response: 8.52

Request: So what does the record say about pIC50 for OC1CN(c2nc(OCC34CCCN3CCC4)nc3c(F)c(-c4cccc5cccc(F)c45)ncc23)Cc2ccnn2C1 (stereo not shown) ?
Response: 4.96

Request: Endpoint output: pIC50 of O=C1NC(=O)C2(CCCCN(c3nc(OCC45CCCN4CCC5)nc4c(F)c(-c5cccc6cccc(F)c56)ncc34)C2)N1 (stereo not shown) . Value?
Response: 5.77

Request: Could you share which pIC50 value was measured for CCc1c(F)ccc2cc(O)cc(-c3ncc4c(NCC5NC(=O)NC5=O)nc(OC[C@@]56CCCN5C[C@H](F)C6)nc4c3F)c12 (stereo partly shown) ?
Response: 8.52

These entries and their values trace back to patent US12398154B2.
